As shown below, each of these molecules has a reported TGI value.
# Test system: SNB-19 CNS
# EXPERIMENTAL_PROTOCOL: NCI tumour cell line growth inhibition, 48 h
Entry rule: numbers only, all in µM.

Reference set, count: 3
May I ask what TGI has been recorded for c1ccc2cc(CNCCOCCOCCNCc3ccc4ccccc4c3)ccc2c1 ?
5.31

Would you kindly share the measured TGI for COc1ccc(C(=O)/C=C/c2cccnc2)cc1OC ?
27.6

// returns reported TGI for input Nc1cc(N)c2nc(-c3ccccc3)c(NCc3ccc(F)cc3)nc2c1
20.1

---
Suppose we examine the molecule O=C1C(=C(I)I)c2ccccc2-c2ccccc21 ; what TGI value has been reported?
27.5

Query: TGI; subject: COc1ccc2c(c1)C(C)Cc1c(Cl)nc(C)nc1N2C (centres undefined)
29.5

What value of TGI has been recorded for this entry: O=C1/C(=C/c2ccccc2)CCC/C1=C\c1ccc(O)c(CN2CCCCC2)c1
26

* * *

Recorded TGI by entry
# Test system: PC-3 prostate
# EXPERIMENTAL_PROTOCOL: NCI tumour cell line growth inhibition, 48 h

A selection of reference data follows.
Param readout= TGI; system= PC-3 prostate; entry= CCCCCCCOc1c(OC)cc(C2CC(=O)Nc3c2c(C)nn3-c2nc3ccccc3[nH]2)cc1OC (stereo unspecified) ; returns value.
> 100 µM

Item: COc1cc2c(cc1OC)C(C)N(C)c1c-2c(OC(C)=O)cc2cc(OC)c(OC)cc12 (stereo unspecified) Test system: PC-3 prostate Read-out: TGI Value: ?
> 90.8 µM

Request: TGI, test system PC-3 prostate, entry Cn1cc(-c2ccc(-c3cn(C)c4ccc(Cl)cc34)s2)c2cc(Cl)ccc21
> 100 µM

I'm curious: which TGI was measured for Cn1c(=O)c2c(ncn2CCCCOc2ccc3c(c2)[n+]([O-])nc(N)[n+]3[O-])n(C)c1=O tested on PC-3 prostate?
> 100 µM

Item: COc1cc(/C=C2\C(=O)N(Cc3ccccc3)C(c3ccccc3)S2(=O)=O)cc(OC)c1OC (stereo unspecified) Test system: PC-3 prostate Read-out: TGI Value: ?
> 100 µM

Continuing:
Find the measured TGI: item c1ccc(CSc2nnc3c4ccccc4c4ccccc4c3n2)cc1 , target or system PC-3 prostate.
> 100 µM

Missing value: TGI, PC-3 prostate, entry CC(C)(C)OC(=O)N(CCNS(=O)(=O)c1cccc2cnccc12)CCC(=O)ON1C(=O)CCC1=O . Fill in?
> 100 µM

Form field: TGI recorded for O=c1c2cn[nH]c2nc2scc(-c3ccc(Cl)cc3)n12 with PC-3 prostate (enter value)
> 100 µM

Query for PC-3 prostate: what TGI does the record show for CC1(C)OC(=O)C2(O1)C(=O)C1CCCCC12 (stereo unspecified) ?
> 100 µM

What TGI appears in the records for this compound with PC-3 prostate? O=C1CC(C(=O)N2CCCCC2)n2c(=O)n(-c3ccccc3)c(=O)n2C1 (stereo unspecified)
> 100 µM

Look up TGI with PC-3 prostate for this compound: NC(CCC(=O)O)(CCC(=O)O)CCC(=O)O
> 100 µM

Could you share what TGI was measured for CCOc1cc2c(cc1OC(C)=O)C(=O)CC[C@H]1C3CC[C@H](OC(C)=O)[C@@]3(C)CC[C@H]21 (stereo partly specified) , tested on PC-3 prostate?
> 100 µM

The origin of these recorded values is PubChem BioAssay (NCI).
